melting point: recorded values

Take a look at these entries with their results.
{"columns": ["test_smiles", "reported"],
 "data": [
  ["CC(C)(C)c1cnnc(N)n1", "187 to 189 °C"],
  ["CCCNC(=S)NN", "61 to 63 °C"],
  ["O=S(=O)(Nc1ccc(F)c(F)c1)c1ccc(Cl)nc1", "159 to 161 °C"],
  ["N#CCCn1c(S)nc2ccccc21", "154 to 158 °C"],
  ["CCN(CC)S(=O)(=O)c1cccc(C(=O)NCC(=O)O)c1", "69 to 71 °C"]
]}

Can you share its melting point? I mean this compound: `COc1cccc(Nc2nc3ccccc3s2)c1`
117 to 119 °C

Can you share its melting point? I mean this compound: `CCCOc1cccc(CC(=O)O)c1`
88 to 90 °C

Can you share its melting point? I mean this compound: `CCOc1ccc(S(N)(=O)=O)cc1OCC`
152 to 154 °C

Can you share its melting point? I mean this compound: `O=C(O)CNC1=NCCCCC1`
163 to 165 °C

Can you share its melting point? I mean this compound: `CN(C)C(=O)c1ccc(Cl)nc1`
67 to 69 °C

Can you share its melting point? I mean this compound: `COc1cc(C(=O)O)cc(Cl)c1OCC(N)=O`
211 to 213 °C
